Molecular target: T1, Rhesus D antigen (human, UniProt Q02161 2-417)
T1 construct: whole, on cells; Presented on RhD(+) erythrocytes; also called RhD; RhD antigen
T1 sequence (looked up): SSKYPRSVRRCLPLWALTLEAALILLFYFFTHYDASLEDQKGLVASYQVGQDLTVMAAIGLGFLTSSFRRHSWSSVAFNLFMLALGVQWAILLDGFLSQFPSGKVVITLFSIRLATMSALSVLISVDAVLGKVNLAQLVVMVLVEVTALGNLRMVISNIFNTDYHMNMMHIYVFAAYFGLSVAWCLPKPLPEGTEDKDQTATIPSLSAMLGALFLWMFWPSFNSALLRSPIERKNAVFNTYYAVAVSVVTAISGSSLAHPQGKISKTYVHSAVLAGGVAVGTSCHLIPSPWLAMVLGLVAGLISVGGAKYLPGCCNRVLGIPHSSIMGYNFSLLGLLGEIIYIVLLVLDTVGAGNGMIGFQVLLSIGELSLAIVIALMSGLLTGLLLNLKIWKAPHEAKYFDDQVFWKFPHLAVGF
Assay: Fab screening on RBC (agglutination, FACS)
Quantity: binding result

[
  {
    "Binder": "RhD303.160B11 (Fab, V domains shown, Tested as Fab in E. coli periplasmic extract (VH on human gamma 1 CH1, vector Em351)) VH: QVQLVESGGGVVQPERSLRLSCAASGFTFSSYGMHWVRQAPGKGLEWVAVISYDGSNKYYADSVKGRFTISRDNSKNTLYLQMNSLRAEDTAVYYCAKDEVGYSSSWYRRYYYYAMDVWGQGTTVTVSS VL: EIVLTQSPGTLSLSPGETATLSCRASQSVSDRDLAWYQQKSGQSPRLLMYGGSTRAPGIPVRFSGSGSGTEFTLTISSLQSEDFAIYYCQHYHDWPPTFGQGTRLEIKR",
    "Quantity": "binding result",
    "Reported Measurement": "binds"
  },
  {
    "Binder": "RhD163.119A02 (Fab, V domains shown, Tested as Fab in E. coli periplasmic extract (VH on human gamma 1 CH1, vector Em351)) VH: QVQLQESGPGLVKPSETLSLTCTVSGGSISSYYWSWVRQPPGKGLEWIGYIYYSGSTNYNPSLKSRVTIALDTSKNQFSLKLRSVTAADTAVYFCTRDWRQYGSAIRGSRYYYGMDVWGQGTTVTVSS VL: EIVLTQSPGTLSLSPGERATLSCRASQNPRRNFLAWYQQKPGQAPRLLIYAASTRATGIPDRFSGSGSGTDFTLTIDRLEPEDSAVYYCQVYGSSPLYTFGQGTKVEMKR",
    "Quantity": "binding result",
    "Reported Measurement": "binds"
  }
]

The origin of these recorded values is patent US20090017017A1.
